- test_summary: NCI Yeast Anticancer Drug Screen. Data for the cln2 rad14 strain (AID 165);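 also: 0% = growth equal to vehicle treated cultures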
- condition_summary: S. cerevisiae cln2 rad14 strain, at 5.0 µM (retest, dose inferred, filed as 0.5)
Compounds without any hit were thinned out: in the full panel of roughly 79,000, 15% have a hit. Calls of active or inactive are those of the source. Rule as the data show it: active = growth inhibition above about 70%; inactive = the rest.
Returns: one label drawn from active, inactive

Query: Fill in: this test's call for Cc1ccc2c(c1)C1C(CC2)C2C(=O)OC(=O)C2C2CCc3ccc(C)cc3C21 (stereo not drawn) is ___
Response: inactive

Query: // param item: CC(C)(C)C1CCC2c3c([nH]c4ccccc34)C3C(=O)N(c4ccc(C(=O)O)cc4)C(=O)C3C2C1 (stereo not drawn) ; yields the recorded call
Response: active

Query: Dear colleague, could you share the recorded outcome for CN(Cc1cc(Cl)cc(Cl)c1)CC(C(=O)c1ccccc1)c1ccccc1 (stereo not drawn) when you have a moment?
Response: inactive

Query: Please let me know the test result on file for CC12CCC(c3sc(N)c(C#N)c31)C2(C)C (stereo not drawn) .
Response: inactive

Query: What did the test return for "CN(NC(=O)/C(=C\c1ccco1)NC(=O)c1ccccc1)c1cn[nH]c(=O)c1Cl" ?
Response: inactive

Query: Assay result, entry C/C(=C/CC1CCC2C3=CCC4CC(O)CCC4(C)C3CCC12C)C(C)C(C)C (stereo not drawn) — outcome?
Response: inactive

Query: Name the outcome recorded for CC1CCC(=NNC(N)=O)CC1 (stereo not drawn) in the assay.
Response: inactive

Query: # fetch the recorded call for "C#CCNC(C)(C)C" here
Response: inactive

Query: What did the test return for "O=[N+]([O-])c1ccc(/C=N/NC2=CS(=O)(=O)C=C2)cc1" ?
Response: inactive

Query: Assay result, entry Cc1ccc(C2(c3ccc(F)cc3)OC(=O)c3ccccc32)c(O)c1 (stereo not drawn) — outcome?
Response: inactive

Query: Call for entry C/C(=N/NC(=O)C[n+]1ccccc1)C(CN(CC(C)C)CC(C)C)C(=O)Nc1ccc(C)cc1C (stereo not drawn) :
Response: inactive

Query: Which outcome was assigned to "COc1ccc(C(=O)C2=C(C)Nc3ccc(Br)cc3S2)cc1" in this test?
Response: inactive

Query: Would you mind telling me which call this test gave "Cc1cccc(/C=N/Nc2ccccn2)n1" ?
Response: inactive

---

Kindly state growth inhibition for each of the entries shown.
- test_summary: NCI Yeast Anticancer Drug Screen. Data for the bub3 strain (AID 167)
- condition_summary: S. cerevisiae bub3 mutant strain, at 50.0 µM (retest, dose inferred, filed as 5.0), stronger effect = higher value
This is part of a sample that, as a whole, favours compounds with a hit. Of some 79,000 tested, about 15% had one in any assay.
Express your answer in %, writing the number without its unit.

Query: # return recorded growth inhibition for entry "CC(C)OC1=C(Cl)C(=O)c2c(cccc2[N+](=O)[O-])C1=O"
Response: 94

Query: Identify growth inhibition associated with the compound "C/C(=N\NC(=S)Nc1ccc(C)cc1)c1nc2ncccc2[nH]1"
Response: 97

Query: Give the reported growth inhibition for this compound. C#CCCOC(=O)CC1=C(C)/C(=C/c2ccc(S(C)=O)cc2)c2ccc(F)cc21 (stereo not given)
Response: 85

Query: Give the reported value of growth inhibition for this record: "CCCCCCCCCC[N+](C)(C)CCC[N+](C)(C)CCCCCCCCCC"
Response: 95

Query: Identify the reported growth inhibition for the following entry. "CS/C(=N\C(=S)Nc1ccccc1)Nc1ccccc1"
Response: 98

---

For each record, write down the corresponding growth inhibition.
- test_summary: NCI Yeast Anticancer Drug Screen. Data for the rad50 strain (AID 155);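 also: 0% = growth of vehicle-only cultures of the same strain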
- condition_summary: S. cerevisiae rad50 strain growth inhibition; at 5.0 µM (retest, dose inferred, filed as 0.5); stronger effect = higher value
The panel holds about 79,000 compounds, 15% with a hit somewhere; the sample as a whole holds those more often.
API: value field is a number in %; no unit string.

Query: Quick one: give measured growth inhibition for "CN(C)c1ccc(C=Nc2cncc3ccccc23)cc1"
Response: 0

Query: Supply reported growth inhibition belonging to this molecule: CC1(C)CC(=O)C(C(c2ccc3c(c2)OCO3)N2CCOCC2)C(=O)C1 (stereo unspecified)
Response: -22

Query: Let me know recorded growth inhibition for "COc1ccc(-c2cn(-c3ccccc3)c3ncnc(N)c23)cc1" , thanks.
Response: 5

Query: Note growth inhibition for the molecule shown: COc1cccc(C2Nc3ccccc3C(=O)N2N2CCOCC2)c1 (stereo unspecified)
Response: 3

Query: Dear colleague, please send me the reported growth inhibition for NCCC(N)P(=O)(O)O (stereo unspecified) when you can.
Response: -166

Query: Return value of growth inhibition for input NCC(O)CSc1ccc(Cl)c(Cl)c1 (stereo unspecified) , no commentary.
Response: 2

---

- test_summary: NCI Yeast Anticancer Drug Screen. Data for the cln2 rad14 strain (AID 165);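 also: 0% = growth equal to vehicle treated cultures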
- condition_summary: S. cerevisiae cln2 rad14 strain, at 5.0 µM (retest, dose inferred, filed as 0.5)
About 79,000 compounds went through this panel and 15% of them were active in at least one assay; those are over-represented in the sample as a whole. The source made the active and inactive calls. Rule as the data show it: active = growth inhibition above about 70%; inactive = the rest.
Mark one answer only. Choices: T = active, F = inactive

Query: Could you please tell me the result logged for "O=C(CN1CCCC1)Nc1nc(-c2ccc(Cl)cc2)cs1" in this assay?
Response: F

Query: Hello, I am checking results. What call was entered for Cc1cccc2c1NC(c1c(C)[nH]c3ccccc13)C2 (configuration not stated) ?
Response: F

Query: Hey, what did the test say about CCOC(=O)C(Br)c1nc2ccccc2[nH]c1=O (configuration not stated) ?
Response: F

Query: I would be grateful if you could indicate the recorded call for "COc1ccc(-c2nc(C)[nH]c(=O)c2Cc2c(O)ccc3ccccc23)cc1" .
Response: F

Query: Test call for this compound, please: "S=c1n(-c2ccc(Cl)cc2)c2nc3ccccc3nc(/c2=N\Nc2cc(Cl)ccc2Cl)n1-c1ccc(Br)cc1"
Response: F

Query: Which outcome did this test record for the compound "COc1ccc(C(=O)[O][Sn]([c]2ccccc2)([c]2ccccc2)[c]2ccccc2)c(OC)c1OC" ?
Response: T

Query: For "Cc1cccc(Cc2ccc(Cl)cc2)c1O" , what call appears in the results of this test?
Response: F

---

- test_summary: NCI Yeast Anticancer Drug Screen. Data for the cln2 rad14 strain (AID 165);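 also: 0% = growth equal to vehicle treated cultures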
- condition_summary: S. cerevisiae cln2 rad14 strain, at 5.0 µM (retest, dose inferred, filed as 0.5), stronger effect = higher value
Compounds without any hit were thinned out: in the full panel of roughly 79,000, 15% have a hit.
Please provide measured growth inhibition for the entries that follow.
Write the number in % without appending the unit.

Query: Look up and state reported growth inhibition for "O=C1C=CC(=O)N1CCc1ccccc1"
Response: -10

Query: Identify measured growth inhibition corresponding to CC(=O)OC1CCC2(C)C(CCC3C2CCC2(C)C4CCC32OC(=O)C4CC(=O)O)C1 (stereo unspecified)
Response: 7

Query: For the compound CCCCCCCCCCCCCCCCCCOC(=O)C(N)CCCCN (stereo unspecified) , report growth inhibition.
Response: -7

Query: State its growth inhibition for this compound: "O=C(NC(=Nc1ccccc1)SCCSC(=Nc1ccccc1)NC(=O)c1ccccc1)c1ccccc1"
Response: 5

Query: Given the compound "O=C1C=CC(=O)N1Cc1ccccc1" , write its reported growth inhibition.
Response: 97

Query: Let me know recorded growth inhibition for "Cc1nc(Cl)c(C#N)c(C)c1[N+](=O)[O-]" , thanks.
Response: -37

---

- test_summary: NCI Yeast Anticancer Drug Screen. Data for the rad50 strain (AID 155);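 also: 0% = growth of vehicle-only cultures of the same strain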
- condition_summary: S. cerevisiae rad50 strain growth inhibition; at 50.0 µM; stronger effect = higher value
Compounds without any hit were thinned out: in the full panel of roughly 79,000, 15% have a hit. The source made the active and inactive calls. Cut-off read from the data, not from the text of the source: active = growth inhibition above about 70%; inactive = the rest.
assay_readout: growth inhibition

Query: Provide growth inhibition value for the following molecule: "S=C(Nc1ccccn1)c1ccccn1"
Response: 23.9% (inactive)

Query: Give growth inhibition for the following molecule: O=C1C(Cl)=C(Cl)C(=O)C2=C1CC(Cl)C(Cl)C2 (configuration not stated)
Response: 99.3% (active)

Query: Give a short answer stating reported growth inhibition for "CC(=O)N1CCCC2=C1CCCCCCCCCC2" .
Response: 49.4% (inactive)

Query: Consider the molecule "Cc1cc(Cl)ccc1N1C(=O)C(=O)C(c2nc3ccccc3o2)C(=O)C1=O" . State its measured growth inhibition.
Response: 86.3% (active)

Query: Give me measured growth inhibition, please, for this molecule: "COc1ccccc1NC(=O)C1=C(C)NC(C)=C(C(=O)Nc2ccccc2OC)C1c1ccc(OC)c(OC)c1"
Response: 55.9% (inactive)

Query: // fetch growth inhibition given entry "O=C1C(SCCO)=C(SCCO)C(=O)c2ccccc21"
Response: 87% (active)

Query: Give the value of growth inhibition reported for the following: "Cn1c(=O)c2c(ncn2CCCCOc2ccc3c(c2)[n+]([O-])nc(N)[n+]3[O-])n(C)c1=O"
Response: 44% (inactive)

Query: Report growth inhibition for "CSC(SC)(C(=O)O)c1cc(C)no1"
Response: 19.4% (inactive)

Query: Please give the documented growth inhibition of "CC(=O)N(/C=C\c1sc2ccccc2[n+]1C)c1ccccc1"
Response: 90.5% (active)

Query: Respond only with growth inhibition recorded for C=CC1(C)CCC2C(=CCC3C(C)(COC4OC(CO)C(O)C(O)C4O)C(O)CCC23C)C1 (configuration not stated)
Response: 93.2% (active)

Query: Give me measured growth inhibition, please, for this molecule: C=C1CCCCC1C(C(=O)O)(c1ccccc1)c1ccccc1 (configuration not stated)
Response: 98.7% (active)

Query: Identify measured growth inhibition associated with CCN(CC)c1ccc(NC(C(=O)c2ccc(Cl)cc2)c2ccc(Cl)cc2)cc1 (configuration not stated)
Response: 91.3% (active)
